Origin of the recorded values: ChEMBL document CHEMBL1201862

tested on: SF-539; experiment: NCI tumour cell line growth inhibition, 48 h
The source made the active and inactive calls. Cut-off read from the data, not from the text of the source: active = GI50 up to about 1.1 µM and inactive = higher.
Outcomes: active, inactive

• C=CCNC(=O)N(CCC)CCCC(NC(C)=O)C(=O)NCc1ccccc1 (stereo unspecified) = inactive
• CC(C)SC1SCC2C(=O)N(C)C3(CC3C)C(=O)OCC(NC(=O)c3nc4ccccc4cc3O)C(=O)NC(C)C(=O)N(C)C1C(=O)N(C)C1(CC1C)C(=O)OCC(NC(=O)c1nc3ccccc3cc1O)C(=O)NC(C)C(=O)N2C (stereo unspecified) = active
• O=Cc1coc2ccccc2c1=O = inactive
• COc1cc2c(C)cc(O)cc2c2cc(O)c(C)cc12 = inactive
• CC1OC(OC2C(Oc3cc(O)c4c(c3)O[C@H](c3ccc(O)cc3)CC4=O)OC(CO)C(O)C2O)C(O)C(O)C1O (stereo partly specified) = inactive
• Cc1nn(C(=O)c2ccncc2)c2c1C(c1cccc([N+](=O)[O-])c1)SC(=N)N2 (stereo unspecified) = inactive

---

test system: SK-OV-3; assay: NCI tumour cell line growth inhibition, 48 h
Activity calls are given as the source filed them. Cut-off read from the data, not from the text of the source: active = GI50 up to about 1.1 µM and inactive = higher.
Labels: TRUE for active, FALSE for inactive

- O=C1CCC(N2C(=O)c3ccccc3C2=O)C(=O)N1 (stereo not given) [THALIDOMIDE]: FALSE
- CCN1CCCC(C#N)(c2ccccc2)CC1 (stereo not given): FALSE
- CC(C)SC1SCC2C(=O)N(C)C3(CC3C)C(=O)OCC(NC(=O)c3nc4ccccc4cc3O)C(=O)NC(C)C(=O)N(C)C1C(=O)N(C)C1(CC1C)C(=O)OCC(NC(=O)c1nc3ccccc3cc1O)C(=O)NC(C)C(=O)N2C (stereo not given): TRUE
- N#Cc1nc(C(O)c2ccccc2)oc1N (stereo not given): FALSE
- COc1cc2c(C)cc(O)cc2c2cc(O)c(C)cc12: FALSE

---

tested on: HOP-92; experiment: NCI tumour cell line growth inhibition, 48 h
Active and inactive are the calls of the source. Rule as the data show it: active = GI50 up to about 1.1 µM and inactive = higher.
experimental.readout: GI50

• OC(c1ccccc1)C(F)(F)c1nc2ccccc2o1 (stereo not drawn) = > 100 µM (inactive)
• CCOC(=O)N1CCNCCN(C(=O)OCC)CCNCC1 = > 100 µM (inactive)
• COc1cc(CO)cc2c1[nH]c1ccccc12 = > 25 µM (inactive)

---

system: CAKI-1; test: NCI tumour cell line growth inhibition, 48 h
Activity calls are given as the source filed them. Rule as the data show it: active = GI50 up to about 1.1 µM and inactive = higher.
experimental.readout: GI50

* O=C1CCCC/C1=C\c1ccc([N+](=O)[O-])cc1 | 18.5 µM (inactive)
* C[C@H]1C(OCCOC2O[C@@H]3O[C@@]4(C)CC[C@H]5[C@H](C)CCC([C@H]2C)[C@@]35O4)O[C@@H]2O[C@@]3(C)CC[C@H]4[C@H](C)CCC1[C@@]24O3 (stereo partly drawn) | 37.2 µM (inactive)
* CCC(=O)C(C)C1=Nc2nnc(CCCCCCCc3nnc4n3C(=O)C(C(C)C(=O)CC)=N4)n2C1=O (stereo not drawn) | > 100 µM (inactive)

---

test system: MDA-N; experiment: NCI tumour cell line growth inhibition, 48 h
Calls of active or inactive are those of the source. Rule as the data show it: active = GI50 up to about 1.1 µM and inactive = higher.
Entries annotated with measured GI50
experimental.readout: GI50

- CCOc1ccccc1/N=C\c1c2ccccc2cc2ccccc12: 21.9 µM (inactive)
- CC(=O)O[C@@H]1C[C@@]23C[C@@]24CC[C@H](OC2OCC(O)C(O)C2O)C(C)(C)[C@@H]4CC=C3[C@]2(C)C[C@@H]3OC4(C[C@@H](C)[C@@H]3[C@@]12C)OC(O)[C@@]1(C)O[C@@H]41 (stereo not given in full): 30.9 µM (inactive)
- COc1ccccc1N1CCN(S(=O)(=O)c2ccc(Cl)cc2)C1=N: 49.3 µM (inactive)
- Clc1ccc(Oc2ccc(/N=C/c3ccc(Cl)cc3Cl)cc2Cl)cc1: 14.8 µM (inactive)
- CCOC(=O)N1CCNCCN(C(=O)OCC)CCNCC1: > 100 µM (inactive)

---

system: KM12; test: NCI tumour cell line growth inhibition, 48 h
Activity calls are given as the source filed them. No stated cut-off is given here; in the data, active = GI50 up to about 1.1 µM and inactive = higher.
experimental.readout: GI50

• O=C1C(CN2CCCCC2)CCCC1CN1CCCCC1 (stereo unspecified) = 37 µM (inactive)
• OCc1cc2c(cn1)[nH]c1ccc(NCc3ccccc3)cc12 = 18.6 µM (inactive)
• O=Cc1coc2ccccc2c1=O = 24.2 µM (inactive)
• CC1(c2cccc(N)c2)C2C(=O)NC(=O)C1C(=O)NC2=O (stereo unspecified) = 23.6 µM (inactive)
• O=c1oc2ccccc2c(Nc2ccc3c(c2)Sc2ccccc2O3)c1[N+](=O)[O-] = 24.7 µM (inactive)
• O=c1oc2ccccc2c(-c2ccc(O)cc2)c1Oc1ccccc1 = 23.6 µM (inactive)
• COc1cc([N+](=O)[O-])c(S(=O)(=O)O)cc1NS(=O)(=O)c1ccc(C)cc1 = > 100 µM (inactive)
• Cc1ccc(C(=O)N/N=C(\N=N\c2ccccc2Cl)c2ccc(N(C)C)cc2)cc1 = 21.9 µM (inactive)
• CCCNC1=Nc2ccccc2NC(C)C1 (stereo unspecified) = > 100 µM (inactive)
• O=C(O)CNC(=O)C1NC(C(F)(F)F)(C(F)(F)F)OC1(C(F)(F)F)C(F)(F)F (stereo unspecified) = > 100 µM (inactive)
• COc1cc([C@@H]2c3cc4c(cc3[C@@H](c3c(O)cc(O)c5c3O[C@H](c3ccc(O)c(O)c3)[C@@H](O)C5)[C@H]3COC(=O)[C@H]23)OCO4)cc(OC)c1OC = 1.76 µM (inactive)
• COc1ccc(NC(=O)C(=O)NNC(=O)c2sc(NNC(C)=O)nc2C)c([N+](=O)[O-])c1 = > 100 µM (inactive)
• O=C(O)CN1CCNCCN(CP(=O)(O)O)CC1 = 5.47 µM (inactive)
• CCOC(=O)c1sc2nc(SC)nc(N3CCCCC3)c2c1N = > 100 µM (inactive)
• CCOC(=O)CCC(NC(=O)OCc1ccccc1)C(=O)NNC(=O)OC(C)(C)C (stereo unspecified) = > 100 µM (inactive)
• CCOC(=O)c1cn(CC)c2ccc3c(c2c1=O)S(=O)(=O)C=C3 = > 100 µM (inactive)

---

tested on: HOP-62; assay: NCI tumour cell line growth inhibition, 48 h
The source made the active and inactive calls. Rule as the data show it: active = GI50 up to about 1.1 µM and inactive = higher.
experimental.readout: GI50

* CCOc1ccccc1/N=C\c1c2ccccc2cc2ccccc12 | 26.1 µM (inactive)
* CC(=O)O[C@@H]1C[C@@]23C[C@@]24CC[C@H](OC2OCC(O)C(O)C2O)C(C)(C)[C@@H]4CC=C3[C@]2(C)C[C@@H]3OC4(C[C@@H](C)[C@@H]3[C@@]12C)OC(O)[C@@]1(C)O[C@@H]41 (stereo partly drawn) | 27.4 µM (inactive)
* COc1cc2c(C)cc(O)cc2c2cc(O)c(C)cc12 | 5.57 µM (inactive)
* COc1ccc2nc(N/N=C/c3ccc(C)s3)cc(C)c2c1 | 20.1 µM (inactive)
* CN(C)/C=C/C(=O)c1cccc(C(=O)/C=C/N(C)C)n1 | > 100 µM (inactive)
* O=C(OCc1ccccc1)N1CCNCCNCCN(C(=O)OCc2ccccc2)CCNCC1 | 36.7 µM (inactive)
* C[C@H](OC(=O)/C=C/c1ccc(O)c(O)c1)[C@H](C)OC(=O)/C=C/c1ccc(O)c(O)c1 | 11.1 µM (inactive)
* COc1ccc2[nH]c3c(c2c1)CC(=O)N1CCC[C@H](C1)CC31OCCCO1 | > 100 µM (inactive)

---

Consider the following GI50 values measured on HCT-15.
experimental.readout: GI50

• O=c1c2cccnc2[s+]([O-])n1Cc1ccccc1 (stereo not drawn) = > 100 µM
• Cc1ccc(S(=O)(=O)n2cnc(CC(NC(=O)C3CCC(=O)N3C(=O)OCc3ccccc3)C(=O)N3CCCC3C(=O)NN)c2)cc1 (stereo not drawn) = > 100 µM
• NS(=O)(=O)c1ccc(NC2=CC(=O)C(=O)c3ccccc32)cc1 = > 100 µM

---

test system: SNB-19; assay: NCI tumour cell line growth inhibition, 48 h
Calls of active or inactive are those of the source. No stated cut-off is given here; in the data, active = GI50 up to about 1.1 µM and inactive = higher.
GI50 overview
experimental.readout: GI50

* Nc1ccc(S(=O)(=O)Nc2cnc3ccccc3n2)cc1 [SULFAQUINOXALINE] | > 100 µM (inactive)
* O=c1oc2ccc(-n3c(=O)c4ccccc4c4ccccc4c3=O)cc2c2ccccc12 | 37.7 µM (inactive)
* CC1=CC(=O)CC2(C)CCC(C(C)CC(=O)CC(C)C)CC12 (stereo not given) | > 100 µM (inactive)
* Cc1nn(C(=O)c2ccncc2)c2c1C(c1cccc([N+](=O)[O-])c1)SC(=N)N2 (stereo not given) | > 10 µM (inactive)
* Nc1ccc(SC23CC4CC(CC(C4)C2)C3)cc1 | > 100 µM (inactive)
* N#Cc1nc(C(O)c2ccccc2)oc1N (stereo not given) | > 100 µM (inactive)
* CC(=O)Oc1cc(C)c(OC(C)=O)c2c1[C@H]1CC[C@]3(C)[C@@H](OC(C)=O)CC[C@H]3[C@@H]1CC2 | 17.8 µM (inactive)
* Cc1nc2ccccc2nc1N1CCCC1 | > 100 µM (inactive)
* CS(=O)(=O)Nc1ccc2ccccc2c1 | > 100 µM (inactive)
* COc1cc(C=O)c(-c2cc3c(cc2C=O)OCO3)c(OC)c1OC | 202 µM (inactive)
* N=C(N)NS(=O)(=O)c1ccc(NNc2c3ccccc3nc3ccccc23)cc1 | 8.34 µM (inactive)
* COC(=O)N/N=C(/CCC(=O)Nc1ccc(C)c(C)c1)CC(=O)C(C)(C)C | > 100 µM (inactive)
* COc1ccc(Cc2c3cc(O)c([O-])cc3cc[n+]2C)cc1 | 35 µM (inactive)
* CCC1(C(=O)OC)CCc2c(OC)ccc(OC)c2C1=O (stereo not given) | > 100 µM (inactive)
* CC(=O)/C(=N\O)C(=O)Nc1ccc(Cl)cc1Cl | > 100 µM (inactive)
